The reported measurements were obtained from patent US20170369590A1.

Answer each item with its documented % cells killed, A431, anti-kappa-ETA'-conjugated.
# measurement_target: human epidermal growth factor receptor 2 (HER2), membrane-bound on cells (human, UniProt P04626 23-1255)
# measurement_description: cell-based or functional assay

# lookup: % cells killed, A431, anti-kappa-ETA'-conjugated of HuMab 169 (antibody, V domains shown, also called TH1014-169; PC1014-169) VH: QVQLVQSGAEVKKPGASVKVSCKASGYTFTNYGISWVRQAPGQGLEWMGWLSAYSGNTIYAQKLQGRVTMTTDTSTTTAYMELRSLRSDDTAVYYCARDRIVVRPDYFDYWGQGTLVTVSS VL: EIVLTQSPATLSLSPGERATLSCRASQSVSSYLAWYQQKPGQAPRLLIYDASNRATGIPARFSGSGSGTDFTLTISSLEPEDFAVYYCQQRSNWPRTFGQGTKVEIK
34%

Lookup HuMab 153 (antibody, V domains shown) VH: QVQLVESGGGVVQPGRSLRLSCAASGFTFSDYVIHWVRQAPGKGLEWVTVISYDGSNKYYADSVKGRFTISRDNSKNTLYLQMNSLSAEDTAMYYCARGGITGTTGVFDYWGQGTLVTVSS VL: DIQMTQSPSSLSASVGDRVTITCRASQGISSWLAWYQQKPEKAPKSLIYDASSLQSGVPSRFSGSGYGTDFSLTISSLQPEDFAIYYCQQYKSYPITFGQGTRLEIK
82.4%

Lookup HuMab 129 (antibody, V domains shown) VH: QVQLVESGGGVVQPGRSLRLSCAASGFTFSTFAIHWVRQAPGKGLEWVAVISYDGGHKFYADSVKGRFTISRDNSKNTLYLQMNSLRAEDTAMYYCARGLGVWGAFDYWGQGTLVTVSS VL: EIVLTQSPATLSLSPGERATLSCRASQSVSSYLAWYQQKPGQAPRLLIYDASNRATGIPARFSGSGSGTDFTLTISSLEPEDFAVYYCQQRSNWWTFGQGTKVEIK
75.9%
